Assay: chemical genetic growth profiling, strain panel (AID 1159580);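 further: tested at 20 µM; growth read once vehicle control cultures reached saturation at 30 °C; 1 = growth at the plate median or of vehicle wells; lower values mean less growth of the strain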
Conditions: S. cerevisiae deletion strains, growth OD, locus YPL256C, strain CLN2, stronger effect = lower value
About 2,000 (36%) of roughly 5,500 compounds were called active. Roughly 18% stayed inconclusive and do not appear here. Some of the results follow.
property: normalized growth
One number for each entry.

The cases that follow already have their normalized growth on record.
[[record]]
molecule = "CC(C)=CCCC1(C)C=Cc2c(O)c3c(c(CC=C(C)C)c2O1)OC12C(=CC4CC1C(C)(C)OC2(C/C=C(/C)C(=O)O)C4=O)C3=O (stereo not given)"
measurement = 0.816

[[record]]
molecule = "Cc1cc(-n2c(=O)[nH]c(=O)n(C)c2=O)ccc1Oc1ccc(SC(F)(F)F)cc1"
measurement = 0.764

[[record]]
molecule = "CC(C)=CCCC1(C)C=Cc2c(O)c3c(c(CC=C(C)C)c2O1)OC12C(=CC4CC1C(C)(C)OC2(C/C=C(/C)C(=O)O)C4O)C3=O (stereo not given)"
measurement = 0.955

[[record]]
molecule = "C#C[C@@H]1CC2C3CCC4=C[C@@H](OC(C)=O)CCC4C3CC[C@]2(C)[C@H]1OC(C)=O (stereo not given in full)"
measurement = 0.936

[[record]]
molecule = "Nc1ccc(Sc2ccccc2)nc1Sc1ccccc1"
measurement = 0.85


Please state normalized growth for every molecule in the list that follows.
1. C#C[C@]1(OC(C)=O)CCC2C3CCC4=CC(=O)CC[C@@H]4C3CC[C@@]21C (stereo not given in full)
2. O=c1[nH]cc(F)c(=O)[nH]1

[0.88, 0.714]

Hi, could you look up normalized growth for each item in my list?
1. C#C[C@]1(O)CCC2C3CCC4=CC(=O)CC[C@@H]4C3CC[C@@]21CC (stereo not given in full)
2. O=C(Nc1ccccc1Sc1ccc([N+](=O)[O-])cc1[N+](=O)[O-])C(Cl)(Cl)Cl

[0.963, 0.996]

Provide one value: measured normalized growth of CCC(C)C(NC)C(=O)O (stereo not given) 1.09

From: PubChem BioAssay AID1159580
